Test: Functional CPE-based assay to measure dose dependent changes in cell viability from drug treatment in Vero E6 miRFP670 cells (cotreated with P-gp inhibitor, CP100356). Cells are treated with antiviral candidates that have been serially diluted. Cytotoxicity is reported via analysis of MTS assays in uninfected cells. The assay has been performed by KU Leuven.
Assay type: toxicity, Vero C1008
Conditions: chlorocebus sabaeus, vero c1008; p-gp concentration 100 nM
readout: CC50

Quote CC50 reported for C[C@@]1(O)[C@H](O)[C@@H](CO)O[C@H]1n1ccc2c(N)ncnc21 please.
> 50 µM

###

Assay: Functional CPE-based assay to measure dose dependent changes in cell viability from drug treatment in Vero E6 miRFP670 cells. Cells are treated with antiviral candidates that have been serially diluted. Cytotoxicity is reported via analysis of MTS assays in uninfected cells. The assay has been performed by KU Leuven.
Assay type: toxicity, Vero C1008
Conditions: chlorocebus sabaeus, Vero E6 miRFP670 cells
# CC50 per record follows

Examples with their reported CC50 follow.
chemical.structure	CC50
O=C(Nc1ccc2c(c1)CNC2)c1cc(Br)cc2[nH]c(-c3ccccc3)nc12	10.7 µM
CN1Cc2ccc(NC(=O)c3cc(Cl)cc4[nH]ncc34)cc2C1	> 50 µM
O=C(Nc1ccc2c(c1)CNC2)c1cc(Br)cc2ccccc12	11.4 µM

Quote CC50 reported for NCc1cc(/C=C/C(=O)O)cc(NC(=O)c2cc(Cl)cc(NC(=O)OCc3ccccc3)c2)c1 please.
> 50 µM

Quote CC50 reported for N[C@H]1Cc2ccc(NC(=O)c3cc(Cl)cc(NC(=O)OCc4ccccc4)c3)cc2C1 please.
2.82 µM

Quote CC50 reported for O=C(Nc1cc(Cl)cc(C(=O)Nc2cccc(-n3nn[nH]c3=O)c2)c1)OCc1ccccc1 please.
> 50 µM

Quote CC50 reported for O=C1Cc2c(cccc2C(=O)Nc2ccc3c(c2)CNC3)N1 please.
> 50 µM

###

Assay: Functional CPE-based assay to measure dose dependent changes in cell viability from drug treatment in Vero E6 miRFP670 cells (cotreated with P-gp inhibitor, CP100356). Cells are treated with antiviral candidates that have been serially diluted. Cytotoxicity is reported via analysis of MTS assays in uninfected cells. The assay has been performed by KU Leuven.
Assay type: toxicity, Vero C1008
Details: chlorocebus sabaeus, Vero E6 miRFP670 cells, with CP100356 (P-gp inhibitor, concentration not stated); p-gp concentration 500 nM
# log10 CC50 per record follows
For clarity, the numbers are log10 values of CC50 expressed in µM.

Examples with their reported log10 CC50 follow.
chemical.structure	observed
NCc1cccc(-c2csc3cc(C(=O)Nc4ccc5c(c4)CNC5)ccc23)c1	0.75
CN(c1ccc2c(c1)CNC2)[C@H](C(=O)NCC(F)F)c1cc(Cl)cc(C2CC2)c1	0.97
O=C(Nc1ccc2c(c1)CNC2)c1cc(F)cc(-c2cnc(C3CC3)s2)c1	1.29

Quote log10 CC50 reported for O=C(Nc1ccc2c(c1)CNC2)c1cc(Br)cc2c1nc1n2CCCC1 please.
-0.07

Quote log10 CC50 reported for O=C(Nc1ccc2c(c1)CNC2)c1cc(F)cc2[nH]c(-c3cccc(F)c3)nc12 please.
0.57

Quote log10 CC50 reported for O=C(Nc1ccc2c(c1)CNC2)c1cc(F)cc2[nH]c(-c3ccccc3)nc12 please.
0.76

###

Experiment: Functional metabolic assay to measure dose dependent changes in cell viability from drug treatment in Vero E6/TMPRSS2 cells (cotreated with P-gp inhibitor, Elacridar). […] Cytotoxicity is reported via measuring absorbance and analysis of MTT/MTS assays in uninfected cells. The assay has been performed by Icahn School of Medicine at Mount Sinai.
Type: toxicity, cell-based, VeroE6/TMPRSS2
Conditions: chlorocebus sabaeus, veroe6/tmprss2; p-gp concentration 2 uM
# CC10 per record follows

chemical.structure	readout	observed
N#C[C@H](Nc1ccc2c(c1)CNC2)c1cc(Cl)cc(C2CC2)c1	CC10	> 50 µM
O=C(Nc1ccc2c(c1)CCNCC2)c1cc(Cl)cc2[nH]ncc12	CC10	7.014 µM
CC(C)c1nc2c(C(=O)Nc3ccc4c(c3)CNC4)cc(Br)cc2[nH]1	CC10	0.476 µM

Moving on to another compound below.
Quote CC10 reported for NCc1cccc(NC(=O)[C@H]2[C@H]3CCCCC[C@H]3[C@H]2NC(=O)OCc2ccccc2)c1 please.
0.166 µM

###

Assay: Functional metabolic assay to measure dose dependent changes in cell viability from drug treatment in Vero E6/TMPRSS2 cells (cotreated with P-gp inhibitor, Elacridar). […] Cytotoxicity is reported via measuring absorbance and analysis of MTT/MTS assays in uninfected cells. The assay has been performed by Icahn School of Medicine at Mount Sinai.
Type: toxicity, cell-based, VeroE6/TMPRSS2
Conditions: chlorocebus sabaeus, veroe6/tmprss2; p-gp concentration 2 uM
readout: CC10

chemical.structure	CC10
O=C(Nc1ccc2c(c1)CNC2)c1cc(Cl)cc2ccncc12	> 50 µM
O=C(Nc1ccc2c(c1)CNC2)c1cc(F)cc2[nH]nnc12	> 50 µM
N#Cc1cc(Cl)cc(C(=O)Nc2ccc3c(c2)CNC3)c1	> 50 µM
CC[C@H](Cc1nnn[nH]1)c1ccc(NC(=O)c2cc(Cl)cc(C3CC3)c2)cc1	> 50 µM
O=S(=O)(Nc1cccc(-c2nnn[nH]2)c1)c1cc(Cl)cc(-c2ccccc2)c1	> 50 µM
NCc1cccc(NC(=O)C[C@H](NC(=O)OCc2ccccc2)c2ccc(OCc3ccccc3)c(Br)c2)c1	0.148 µM
Cc1ccc(S(=O)(=O)CNC(=O)[C@H](Nc2ccc3c(c2)CNC3)c2cc(Cl)cc3[nH]ncc23)cc1	> 50 µM
N#CCCNC(=O)[C@H](Nc1ccc2c(c1)CNC2)c1cc(Cl)cc(C2CC2)c1	> 50 µM

Quote CC10 reported for NCCCc1cccc(NC(=O)c2cc(Cl)cc(NC(=O)OCc3ccccc3)c2)n1 please.
0.527 µM

Quote CC10 reported for O=C(Nc1ccc2c(c1)CNC2)c1cc(Br)cc2[nH]c([C@H]3CCOC3)nc12 please.
0.852 µM

###

# CC50 per record follows
Assay: Functional assay to measure dose dependent changes in cell viability from drug treatment in Vero E6 miRFP670 cells (cotreated with P-gp inhibitor, CP100356) that are infected with Dengue virus type 2 New Guinea C. […] Cytotoxicity is reported via via analysis of DAPI count using high-content imager. The assay has been performed by KU Leuven.
Type: toxicity, cell-based, Vero C1008
Details: chlorocebus sabaeus, with CP100356 (P-gp inhibitor, concentration not stated); p-gp concentration 500 nM

Examples with their reported CC50 follow.
chemical.structure	CC50
O=C(NCCC1CC1)[C@H](Nc1ccc2c(c1)CNC2)c1cc(Cl)cc(C2CC2)c1	16.7 µM
N#CCc1cc(NC(=O)c2cc(F)cc3[nH]ncc23)cc2c1CNC2	> 50 µM
Cc1ncc(-c2cc(F)cc(C(=O)Nc3ccc4c(c3)CNC4)c2)s1	> 50 µM
N#CCCNC(=O)[C@H](Nc1ccc2c(c1)CNC2)c1cc(Cl)cc(C2CC2)c1	24.2 µM

Moving on to another compound below.
Quote CC50 reported for CNC(=O)[C@H](Nc1cc(Cl)cc(NC(=O)OCc2ccccc2)c1)c1cccc(CN)c1 please.
24.2 µM

###

Assay: Functional metabolic assay to measure dose dependent changes in cell viability from drug treatment in Vero E6/TMPRSS2 cells (cotreated with P-gp inhibitor, Elacridar). […] Cytotoxicity is reported via measuring absorbance and analysis of MTT/MTS assays in uninfected cells. The assay has been performed by Icahn School of Medicine at Mount Sinai.
Assay type: toxicity, cell-based, VeroE6/TMPRSS2
Conditions: chlorocebus sabaeus, veroe6/tmprss2; p-gp concentration 2 uM
readout: CC10

Examples with their reported CC10 follow.
chemical.structure	CC10
NCc1cccc(NC(=O)[C@@H](NC(=O)OCc2ccccc2)c2ccc(Br)c(Cl)c2)c1	0.556 µM
N#C[C@H](Nc1cccc(-c2nn[nH]n2)c1)c1cc(Cl)cc(NC(=O)OCc2ccccc2)c1	> 50 µM
NCc1ccc(-c2ncc(OCC3CCNCC3)nc2-c2ccc(-c3ccoc3)cc2)cc1	39.762 µM
CC[C@@H](Cc1nnn[nH]1)c1ccc(NC(=O)c2cc(Cl)cc(NC(=O)OCc3ccccc3)c2)cc1	> 50 µM
Cc1c(C(=O)Nc2cc(-c3cccnc3)ccn2)cc(C2CC2)n1C	13.062 µM
Cc1ccc(NC(=O)c2cc(Cl)cc3[nH]ncc23)cc1CN	0.133 µM
N#Cc1cc(Cl)cc([C@H](C#N)Nc2ccc3c(c2)CNC3)c1	> 50 µM
Cn1cc2cc(Cl)cc(C(=O)Nc3ccc4c(c3)CNC4)c2n1	> 50 µM
O=C(Nc1ccc2c(c1)CNC2)c1cc(Br)cc2[nH]c(Cc3ccccc3)nc12	0.199 µM

Moving on to another molecule below.
Quote CC10 reported for NCCCc1ccnc(NC(=O)c2cc(Cl)cc(NC(=O)OCc3ccccc3)c2)c1 please.
2.116 µM

###

Experiment: Functional CPE-based assay to measure dose dependent changes in cell viability from drug treatment in Vero E6 miRFP670 cells. Cells are treated with antiviral candidates that have been serially diluted. Cytotoxicity is reported via analysis of MTS assays in uninfected cells. The assay has been performed by KU Leuven.
Assay type: toxicity, Vero C1008
Conditions: chlorocebus sabaeus, Vero E6 miRFP670 cells
readout: CC50 (µM)
Give just the number in µM; leave the unit off.

Examples with their reported CC50 follow.
chemical.structure	CC50, µM
CCOc1cccc(-c2ccc(S(=O)(=O)Nc3ccc(Cl)cc3C(=O)O)cc2C)c1	36.1
O=C(O)c1cc2cc(-c3cc(Cl)cc(C4CC4)c3)ccc2[nH]1	40.7
O=C(Nc1cc(Cl)cc(C(=O)Nc2cccc(C3CCNCC3)c2)c1)OCc1ccccc1	5.29
NCc1cccc(NC(=O)[C@@H](NC(=O)OCc2ccccc2)c2ccc(-c3cc4cccnc4s3)cc2)c1	34.7
O=C(Nc1cc(Cl)cc(C(=O)Nc2ccc(C3CCNCC3)cc2)c1)OCc1ccccc1	2.82

Quote CC50 reported for CC(=O)NCc1cccc(NC(=O)c2cc(Cl)cc(NC(=O)OCc3ccccc3)c2)c1 please.
38

Quote CC50 reported for O=C(NCC(F)(F)F)c1cc(Cl)c(F)cc1NS(=O)(=O)c1ccc(Oc2ccccc2Cl)cc1 please.
3.98

Quote CC50 reported for CC(C)CNC(=O)c1cc(Cl)c(F)cc1NS(=O)(=O)c1ccc(Oc2ccccc2Cl)cc1 please.
4.96

Quote CC50 reported for NCc1cccc(NC(=O)[C@H](NC(=O)OCc2ccccc2)c2ccc(Br)c(Cl)c2)c1 please.
10

Quote CC50 reported for O=C(Nc1cc(Cl)cc(C(=O)Nc2ccc3c(c2)CNC3)c1)OCc1ccccc1 please.
9.29

Quote CC50 reported for CCc1cc(Br)cc2c(Cc3ccc(-c4nnn[nH]4)cc3)c[nH]c12 please.
19.4
